B1: Osa-1-4 twister ribozyme (parent)
chain: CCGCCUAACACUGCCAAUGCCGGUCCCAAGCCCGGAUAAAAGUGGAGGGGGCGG

# Variants of: B1
# assay-text: self-cleavage, relative activity (ratio to wild type); higher = more cleavage; co-transcriptional
attribute-measured: self-cleavage

See these solved cases before continuing.
mutation-code: C25U G22U
self-cleavage: 0.47
--
mutation-code: A16U G30U
self-cleavage: 0.03
--
mutation-code: A46U C27U
self-cleavage: 0.06
--
mutation-code: C21U G49U
self-cleavage: 0.14
--
mutation-code: A16C C14A
self-cleavage: 0.08

Ask: Look up self-cleavage: A39G C33U
Reply: 0.63

Ask: Look up self-cleavage: C32U G19A
Reply: 0.1

Ask: I would be grateful if you could share the reported self-cleavage for C32G G13C .
Reply: 0.02

Ask: GET /values?readout=self-cleavage&item= A8G C32U
Reply: 0.07

Ask: Could you tell me which self-cleavage is on file for C14A G44U ?
Reply: 0.05

Ask: self-cleavage lookup needed for C31A G49U , thanks.
Reply: 0.02

Ask: Bench note: what self-cleavage did A16U C27U show?
Reply: 0.17

Ask: Please report the recorded self-cleavage for A39C C25U .
Reply: 0.33

Ask: What does the record list as self-cleavage for C15A G34C ?
Reply: 0.11

Ask: Give its self-cleavage value. Item: A17G G49A
Reply: 0.26

Ask: // self-cleavage lookup, key: G45U G54U
Reply: 0.2

Ask: Can you look up the measured self-cleavage of A17U A29G for me?
Reply: 0.35
